Source: PubChem BioAssay (NCI)

procedure.summary: NCI Yeast Anticancer Drug Screen. Data for the CLN2oe strain (AID 163);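 also: 0% = growth of vehicle-only control cultures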
conditions.used: S. cerevisiae CLN2oe strain, at 11.0 µM, active compounds read high
This is part of a sample that, as a whole, favours compounds with a hit. Of some 79,000 tested, about 15% had one in any assay.
endpoint: growth inhibition (%)
Record the value in %, omitting the unit from your answer.

{"molecule": "CN1CCN(C(=O)/C=C/C(=O)c2ccccc2)CC1", "growth inhibition [%]": 15}
{"molecule": "Cc1sc2ccc3ccccc3c2[n+]1C", "growth inhibition [%]": -39}
{"molecule": "O=C1C=C(Cl)C(=O)C(c2ccc(Cl)cc2)=C1", "growth inhibition [%]": 69}
{"molecule": "N#CNC(N)=Nc1cc2ccccc2c2ccccc12", "growth inhibition [%]": 68}
{"molecule": "COc1cc(O)c(O)c(C(C)(C)C)c1", "growth inhibition [%]": 3}

Which value of growth inhibition has been reported for CCCCCCCCCCCCCCCCOP(=O)(O)OCC(N)C(=O)O (centres undefined) in the records?
-3

Next molecule: O=C1c2ccccc2C(=O)N1CCCC(=O)n1cc(F)c(=O)[nH]c1=O
-19

Thanks! And CC(=O)OCC(C)Cc1cc2c(cc1Br)OCO2 (centres undefined) ?
-16

Now consider N/C(=N/N=C/c1cc(Br)cc(Br)c1O)NO .
25

Another molecule to look at: O=[N+]([O-])c1cccc2nc3ccccc3c(NCCC[N+]3([O-])CCCCC3)c12
46

Next molecule: CCCCCOC(=S)SC(=O)OCC
-7

Continue with O=C1CC(=O)c2ccccc21
3

Further, for Cc1nc2ccccc2nc1NNc1ccccc1 ?
10

Another molecule to look at: CCOC(=O)CC1(C(=O)OCC)c2[nH]c3ccccc3c2CCN1Cc1ccccc1 (centres undefined)
4

Next molecule: CN(C)CCCCN1c2ccccc2Sc2ccc(N=[N+]=[N-])cc21
24

Another molecule to look at: CC1SC2(C(=O)Nc3ccc(Cl)cc32)N(c2ccc(Cl)cc2)C1=O (centres undefined)
12

Now the same for CCCCCCSc1ncnc2[nH]ncc12
3

One more molecule: CCCC(=O)Oc1ccc(/C=N/NC(N)=S)nc1
-11

Now this one: Cc1ccc(Cl)cc1NC(=O)OCCN(C)C(=O)Nc1cc(Cl)ccc1C
-48

// same read-out, input: COc1ccc(NC(=O)CC2SC(=Nc3ccccc3C)NC2=O)c([N+](=O)[O-])c1 (centres undefined)
0

One more molecule: CNCCCNc1c2ccccc2nc2cccc([N+](=O)[O-])c12
80

Repeat with C#CCN(Cc1ccc2nc(N)[nH]c(=O)c2c1)c1ccc(C(=O)NC(CCC(=O)O)C(=O)O)cc1 (centres undefined)
-14

Again, but for COc1nc2c(c(=O)n1C)N=C(c1ccccc1)[C@H](C(CC(=O)c1ccccc1)c1ccccc1)C(c1ccccc1)N2 (some centres undefined)
4

Now consider CCCC/C=C/C(C)(C(=O)OCC)C(=O)OCC .
-8

====

Recorded measurements of growth inhibition, one per entry
procedure.summary: NCI Yeast Anticancer Drug Screen. Data for the bub3 strain (AID 167)
conditions.used: S. cerevisiae bub3 mutant strain, at 3.7 µM, active compounds read high
This is part of a sample that, as a whole, favours compounds with a hit. Of some 79,000 tested, about 15% had one in any assay.
Report the value in % with no unit label.

Worked cases, growth inhibition given:
{"compound": "C[C@@](O)(/C=C/[C@H]1CC=CC(=O)O1)[C@@H](C[C@@H](O)\\C=C/C=C\\C=C\\CO)OP(=O)(O)O", "growth inhibition [%]": 45}
{"compound": "CCc1ccc2c(c1)N(CC(C)CN(C)C)c1ccccc1S2 (configuration not stated)", "growth inhibition [%]": 3}
{"compound": "Cc1ccc2c3ccc4c(c3n(C)c2c1)C(=O)C=CC4=O", "growth inhibition [%]": -1}

Sample CSc1nnc(SC)nn1 — what was its growth inhibition?
27

Now the compound COC(=O)Nc1cn2ccc(C(Cl)=C(Cl)Cl)cc2n1
-14

Now consider O=C1Nc2ccc(Br)cc2C1=Nc1ccc2c(c1)OCO2 and answer again.
-22

Next entry: CCOc1ccccc1N=Cc1c2ccccc2cc2ccccc12
34

Same again, this time with O=C(O)C1CC(c2ccccc2)=NN1c1ccccc1 (configuration not stated)
-22

Then this compound: CN(C)c1ccc(C2CC(C)(O)Oc3cc4c(cc32)OCO4)cc1 (configuration not stated)
-3

Now consider Cn1c(=O)c2c(nc(N)n2C2OC(CO)C(O)C2O)n(C)c1=O (configuration not stated) .
3

Same lookup for Oc1cccc2cc(Cl)cnc12 , please.
-8

Please answer likewise for Cc1cccc(/C=N/NC(=S)N2CCCC2)n1
-8
